Attribution: patent US5767113A

Tested on: S7dexΓ -1 cells
Assay: Reversal of puromycin resistance in the S7dex-1 cell line (turbidity at 660 nm)
Format: cell-based, murine
Conditions: S7dex1 cells, 5 days with 20 μM puromycin; chemosensitizer concentration that reduces Relative Turbidity by 50%; read-out: ED50 ^1
pIC50: −log10 of the molar value.

- compound: "CC(=O)[C@H]1[C@H](C)C[C@H]2[C@@H]3CCC4=CC(=O)C=C[C@]4(C)[C@@]3(F)[C@@H](O)C[C@@]21C"
  pIC50: 6.28
- compound: "C[C@@H]1C[C@H]2[C@@H]3CCC4=CC(=O)C=C[C@]4(C)[C@@]3(F)[C@@H](O)C[C@]2(C)[C@H]1C(=O)COC(=O)NCc1ccccc1"
  pIC50: 6.38
- compound: "CC(=O)[C@H]1CC[C@H]2[C@@H]3CCC4=CC(=O)CC[C@]4(C)[C@H]3CC[C@]12C [Progesterone, reference compound]"
  pIC50: 5.80
- compound: "CN(C)c1ccc(C(=O)OCC(=O)[C@@]2(O)CC[C@H]3[C@@H]4CCC5=CC(=O)C=C[C@]5(C)[C@@]4(Cl)[C@@H](Cl)C[C@@]32C)cc1"
  pIC50: 6.35
- compound: "C[C@@H]1C[C@H]2[C@@H]3CCC4=CC(=O)C=C[C@]4(C)[C@@]3(F)[C@@H](O)C[C@]2(C)[C@H]1C(=O)COC(=O)c1ccc(N(C)C)cc1"
  pIC50: 6.44
- compound: "C[C@@H]1C[C@H]2[C@@H]3CCC4=CC(=O)C=C[C@]4(C)[C@@]3(F)[C@@H](O)C[C@]2(C)[C@H]1C(=O)CO [17-DOD, reference compound]"
  pIC50: 5.57
- compound: "COc1ccc(C(=O)OCC(=O)[C@@]2(O)CC[C@H]3[C@@H]4CCC5=CC(=O)C=C[C@]5(C)[C@@]4(Cl)[C@@H](Cl)C[C@@]32C)cc1OC"
  pIC50: 6.36

###

Test system: murine thymoma W7TB cells
Experiment: Glucocorticoid agonist activity: glucocorticoid-induced apoptosis of murine thymoma W7TB cells (turbidity at 660 nm)
Assay type: cell-based
Details: Mus musculus, 120 h, 5 days, agonist concentration that reduces Relative Turbidity to 50%, read-out: LD50 ^3

- compound: "CC(=O)[C@H]1[C@H](C)C[C@H]2[C@@H]3CCC4=CC(=O)C=C[C@]4(C)[C@@]3(F)[C@@H](O)C[C@@]21C [SA 50]"
  value_units: "nM"
  IC50: 9
- compound: "C[C@]12C=CC(=O)C=C1CC[C@H]1[C@@H]3CC[C@](O)(C(=O)CO)[C@@]3(C)C[C@H](Cl)[C@@]12Cl [Dichlorisone, reference compound]"
  value_units: "nM"
  IC50: 7.5
- compound: "C[C@@H]1C[C@H]2[C@@H]3CCC4=CC(=O)C=C[C@]4(C)[C@@]3(F)[C@@H](O)C[C@]2(C)[C@H]1C(=O)CO [17-DOD, reference compound]"
  value_units: "nM"
  IC50: 5.3
- compound: "CN(C)c1ccc(C(=O)OCC(=O)[C@@]2(O)CC[C@H]3[C@@H]4CCC5=CC(=O)C=C[C@]5(C)[C@@]4(Cl)[C@@H](Cl)C[C@@]32C)cc1 [SA 47]"
  value_units: "nM"
  IC50: 13
- compound: "C[C@@H]1C[C@H]2[C@@H]3CCC4=CC(=O)C=C[C@]4(C)[C@@]3(F)[C@@H](O)C[C@]2(C)[C@H]1C(=O)COC(=O)c1ccc(N(C)C)cc1 [SA 45]"
  value_units: "nM"
  IC50: 34
- compound: "COc1ccc(C(=O)OCC(=O)[C@@]2(O)CC[C@H]3[C@@H]4CCC5=CC(=O)C=C[C@]5(C)[C@@]4(Cl)[C@@H](Cl)C[C@@]32C)cc1OC [SA 44]"
  value_units: "nM"
  IC50: 14
- compound: "CC(=O)[C@H]1CC[C@H]2[C@@H]3CCC4=CC(=O)CC[C@]4(C)[C@H]3CC[C@]12C [Progesterone, reference compound]"
  value_units: "nM"
  IC50: 2400
- compound: "COc1ccc(C(=O)OCC(=O)[C@H]2[C@H](C)C[C@H]3[C@@H]4CCC5=CC(=O)C=C[C@]5(C)[C@@]4(F)[C@@H](O)C[C@@]32C)cc1OC [SA 43]"
  value_units: "nM"
  IC50: 18
- compound: "C[C@@H]1C[C@H]2[C@@H]3CCC4=CC(=O)C=C[C@]4(C)[C@@]3(F)[C@@H](O)C[C@]2(C)[C@H]1C(=O)COC(=O)NCc1ccccc1 [SA 54]"
  value_units: "nM"
  IC50: 250
